# Tested on: Bacillus subtilis DB104 (SP-AmyQ fusion secretion)
# Assay Info: AmyQ secretion efficiency, weighted average sort bin (1 = best secretion, 10 = worst) (bin number (weighted average, 1-10)); higher = lower secretion efficiency
Please respond with reported AmyQ secretion efficiency for every item in the list.
One number for each entry.

Recorded AmyQ secretion efficiency, per entry:
- MKIRKILLSSALSFGMLKDKVPALAAGT: 6.36
- MQKKWRRRLIQFAVMLSVLSTFTYSASAVGV: 3.56
- MKSKWMSGLLLVAVGFSFTQVMTSFFTPASPVHAGET: 6.76

Respectfully, I request AmyQ secretion efficiency for each entry included below.
1. MKKIAGVLTVAAAAMTAKMYATAKGN
2. MLKKKWMVGLLAGCLAAGGFSYNVFATEN
3. MKKRLIAPMLLSAASLAFFAMSGSAQNAAY
4. MPIKKKVMMCLAVTLVFGSMSFPTLTNKGGFKE

Solution:
[7.41, 5.37, 8.43, 7.01]
